Entry source: patent EP1709964A2

Percentages viability reference
# Test system: normal human melanocytes
# test method notes: Cytotoxicity by PNPP determination (percentage viability)
# Assay type: cell-based
# particulars: 10^-4 M; 24 hours at 37°C; with respect to non-treated wells
test readout: Percentages viability

* COc1cc(OC)c2c(c1)O/C(=C\c1ccc(C#N)cc1)C2=O | 98.93%
* COc1cc(OC)c2c(c1)O/C(=C\c1ccc(O)cc1)C2=O | 104.53%
* CCc1ccc(/C=C2\Oc3cc(O)cc(O)c3C2=O)cc1 | 63.52%
* COc1cc(OC)c2c(c1)OCC2=O | 106.77%
* COc1cc(OC)c2c(c1)O/C(=C\c1ccc(SC)cc1)C2=O | 80.08%
* O=C1/C(=C/c2ccc(O)cc2)Oc2cc(O)cc(O)c21 | 90.31%
* COc1cc(O)c2c(c1)O/C(=C\c1ccc(C#N)cc1)C2=O | 85.65%
* COc1cc(OC)c2c(c1)O/C(=C\c1ccccc1)C2=O | 83.1%

---

# tested system: Human tyrosinase (Homo sapiens, UniProt P14679)
# Construct: Normal human melanocytes (originating from abdominal plasty) are sown in a 24-well plate; endogenous in cells; host or cells: normal human melanocytes from abdominal plasty; donors of light, brown and black phototype
# test method notes: Inhibition of human tyrosinase in a monolayer after 24 h application of the actives on normal human melanocytes (MBTH/L-Dopa, OD 490 nm/protein)
# Assay type: cell-based
# particulars: 10^-4M; 24 hours; read-out: Inhibition of human tyrosinase after application on normal human melanocytes, percentage inhibition
test readout: inhibition at 100 µM (%)

• CCc1ccc(/C=C2\Oc3cc(O)ccc3C2=O)cc1 [Example 3a] = 0
• COc1cc(OC)c2c(c1)O/C(=C\c1[nH]c(C)cc1C)C2=O [Example 5t] = 5.1
• COc1cc(OC)c2c(c1)O/C(=C\c1ccco1)C2=O [Example 5m] = 19.5
• COc1ccc(/C=C2\Oc3cc(O)cc(O)c3C2=O)cc1 [Example 9] = 10.7
• COc1cc(OC)c2c(c1)O/C(=C\c1ccc(S(=O)(=O)O)cc1S(=O)(=O)O)C2=O [Example 5f] = 9.36
• COc1cc(O)c2c(c1)O/C(=C\c1ccc(C#N)cc1)C2=O [Example 6d] = 2.31
• COc1cc(OC)c2c(c1)O/C(=C\c1ccc(O)cc1)C2=O [Example 5a] = 14.4
• COc1cc(OC)c2c(c1)O/C(=C\c1ccc(SC)cc1)C2=O [Example 5c] = 0
• Cc1cc(/C=C2\Oc3cc(O)cc(O)c3C2=O)oc1C [Example 7o] = 13.6

---

The following compounds are listed with their measured inhibition at 100 µM values.
# tested system: Human tyrosinase (Homo sapiens)
# Construct: Normal human melanocytes (originating from abdominal plasty) are sown in a 24-well plate; endogenous in cells; host or cells: normal human melanocytes from abdominal plasty; donors of light, brown and black phototype
# test method notes: Inhibition of human tyrosinase in a monolayer after 24 h application of the actives on normal human melanocytes (MBTH/L-Dopa, OD 490 nm/protein)
# Format: cell-based
# particulars: 10^-4M; 24 hours; read-out: Inhibition of human tyrosinase after application on normal human melanocytes, percentage inhibition
# Method: Normal human melanocytes (originating from abdominal plasty) are sown in a 24-well plate at the rate of 80,000 cells per well. They are cultivated up to confluence and the actives are applied for 24 hours in the culture media. After 24 hours, the media are removed and the melanocytes are picked up by mechanical action. An extraction is made by heat shock and the supernatants are then recovered and then incubated with MBTH (Sigma) and L-Dopa (Sigma). […]
test readout: inhibition at 100 µM (%)

* CCc1ccccc1/C=C1\Oc2cc(O)cc(O)c2C1=O [Example 7l] | 0
* CCc1ccccc1/C=C1\Oc2cc(O)ccc2C1=O [Example 3b] | 0
* COc1cc(OC)c2c(c1)O/C(=C\c1ccc(S(=O)(=O)O)cc1)C2=O [Example 5e] | 0
* COc1cc(OC)c2c(c1)O/C(=C\c1ccc(C#N)cc1)C2=O [Example 5d] | 0
* O=C1/C(=C/c2cccs2)Oc2cc(O)cc(O)c21 [Example 7p] | 35.2

---

# tested system: Human tyrosinase (Homo sapiens, UniProt P14679)
# Construct: Normal human melanocytes (originating from abdominal plasty) are sown in a 24-well plate; endogenous in cells; host or cells: normal human melanocytes from abdominal plasty; donors of light, brown and black phototype
# Sequence (P14679 19-529): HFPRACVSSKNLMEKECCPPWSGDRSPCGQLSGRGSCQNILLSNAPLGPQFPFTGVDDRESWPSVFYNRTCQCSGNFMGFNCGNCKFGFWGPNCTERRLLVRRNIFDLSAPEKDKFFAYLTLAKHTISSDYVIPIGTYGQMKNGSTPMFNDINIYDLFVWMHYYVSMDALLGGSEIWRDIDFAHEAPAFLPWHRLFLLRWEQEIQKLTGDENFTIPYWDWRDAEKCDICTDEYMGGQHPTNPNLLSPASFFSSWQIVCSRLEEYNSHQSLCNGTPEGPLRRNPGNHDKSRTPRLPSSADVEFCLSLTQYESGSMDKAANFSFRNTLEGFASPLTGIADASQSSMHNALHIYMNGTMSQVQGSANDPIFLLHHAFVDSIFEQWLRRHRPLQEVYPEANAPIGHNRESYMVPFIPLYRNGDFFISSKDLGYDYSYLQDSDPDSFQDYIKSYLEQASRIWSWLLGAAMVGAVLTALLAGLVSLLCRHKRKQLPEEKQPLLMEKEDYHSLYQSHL
# test method notes: Inhibition of human tyrosinase in a monolayer after 24 h application of the actives on normal human melanocytes (MBTH/L-Dopa, OD 490 nm/protein)
# Type: cell-based
# particulars: 10^-4M; 24 hours; read-out: Inhibition of human tyrosinase after application on normal human melanocytes, percentage inhibition
compounds and their reported inhibition at 100 µM
test readout: inhibition at 100 µM

• CCc1ccc(/C=C2\Oc3cc(O)cc(O)c3C2=O)s1 [Example 7r] = 13.8%
• O=c1cc(-c2ccc(O)cc2)oc2cc(O)cc(O)c12 [Apigenin, reference compound] = -59.1%
• O=C1/C(=C/c2ccccc2)Oc2cc(O)cc(O)c21 [Example 7] = 3.37%
• COc1cc(OC)c2c(c1)O/C(=C\c1cccs1)C2=O [Example 5p] = 31.3%
• CCOc1ccc(/C=C2\Oc3cc(O)cc(O)c3C2=O)cc1 [Example 9a] = 5.25%

---

# System: normal human melanocytes
# test method notes: Cytotoxicity by PNPP determination (percentage viability)
# Format: cell-based
# particulars: 10^-5 M; 24 hours at 37°C; with respect to non-treated wells
test readout: Percentages viability (%)

- COc1cc(O)c2c(c1)O/C(=C\c1ccc(C#N)cc1)C2=O: 119.36
- COc1cc(OC)c2c(c1)O/C(=C\c1ccccc1)C2=O: 98.55
- CCc1ccc(/C=C2\Oc3cc(O)cc(O)c3C2=O)cc1: 143.15
- COc1cc(OC)c2c(c1)O/C(=C\c1ccc(SC)cc1)C2=O: 136.13
- CCc1ccc(/C=C2\Oc3cc(OC)cc(OC)c3C2=O)cc1: 99.62
- COc1cc(OC)c2c(c1)OCC2=O: 85.33
- O=C1/C(=C/c2ccc(O)cc2)Oc2cc(O)cc(O)c21: 128.39
- COc1cc(OC)c2c(c1)O/C(=C\c1ccc(C#N)cc1)C2=O: 96.51
- COc1cc(OC)c2c(c1)O/C(=C\c1ccc(O)cc1)C2=O: 90.87
- COc1cc(O)c2c(c1)O/C(=C\c1ccccc1)C2=O: 121.56
- COc1cc(O)c2c(c1)O/C(=C\c1ccc(SC)cc1)C2=O: 116.24

---

# tested system: Human tyrosinase (Homo sapiens, UniProt P14679)
# Construct: Normal human melanocytes (originating from abdominal plasty) are sown in a 24-well plate; endogenous in cells; host or cells: normal human melanocytes from abdominal plasty; donors of light, brown and black phototype
# test method notes: Inhibition of human tyrosinase in a monolayer after 24 h application of the actives on normal human melanocytes (MBTH/L-Dopa, OD 490 nm/protein)
# Type: cell-based
# particulars: 10^-5M; 24 hours; read-out: Inhibition of human tyrosinase after application on normal human melanocytes, percentage inhibition
# Procedure: Normal human melanocytes (originating from abdominal plasty) are sown in a 24-well plate at the rate of 80,000 cells per well. They are cultivated up to confluence and the actives are applied for 24 hours in the culture media. After 24 hours, the media are removed and the melanocytes are picked up by mechanical action. An extraction is made by heat shock and the supernatants are then recovered and then incubated with MBTH (Sigma) and L-Dopa (Sigma). […]
test readout: inhibition at 10 µM

• COc1cc(O)c2c(c1)O/C(=C\c1ccc(C#N)cc1)C2=O [Example 6d] = 0%
• COc1cc(OC)c2c(c1)O/C(=C\c1ccc(S(=O)(=O)O)cc1)C2=O [Example 5e] = 1.44%
• CC(C)(C)c1ccc(/C=C2\Oc3cc(O)cc(O)c3C2=O)cc1 [Example 7k] = 25.1%
• COc1cc(OC)c2c(c1)O/C(=C\c1ccc(O)cc1)C2=O [Example 5a] = 27.4%
• COc1ccc(/C=C2\Oc3cc(O)cc(O)c3C2=O)cc1 [Example 9] = 14.1%
